assay: Stability of markers in solution at room temperature, followed by peak retention time on chromatography; format: physicochemical; details: solution at room temperature, 0.1 mg/ml; 3rd of four analyses at 8 hour intervals
Please respond with reported Peak Retention Time for every item in the list.
Answers are plain numbers, in min.

Below, 2 molecules whose answers are already recorded.
molecule	unit_of_measure	Peak Retention Time
TV-77: 77-mer sequence-defined polypeptide molecular weight marker of Ala, Glu, Tyr, Lys, molecular weight = 8259 daltons (peptide) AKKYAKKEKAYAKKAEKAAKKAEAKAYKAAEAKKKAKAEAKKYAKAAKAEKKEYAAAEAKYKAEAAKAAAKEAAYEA	min	26.750
TV-109: 109-mer sequence-defined polypeptide molecular weight marker, molecular weight = 11727 daltons (peptide) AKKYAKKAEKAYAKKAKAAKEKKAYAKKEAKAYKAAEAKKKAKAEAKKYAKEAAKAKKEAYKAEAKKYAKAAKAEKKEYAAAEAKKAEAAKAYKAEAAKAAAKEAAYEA	min	24.883

Q: Give its Peak Retention Time value. Item: TV-86: 86-mer sequence-defined polypeptide molecular weight marker of Ala, Glu, Tyr, Lys, molecular weight = 9220 daltons (peptide) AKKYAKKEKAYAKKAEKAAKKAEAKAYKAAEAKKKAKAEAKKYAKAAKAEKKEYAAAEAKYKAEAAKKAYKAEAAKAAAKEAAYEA
Ans: 26.150
